tested on: RARg homodimer (NR concentration 270 nM); test: PBM binding z-score (relative to random genomic background probes); higher = stronger binding; sequences stand for … in GC…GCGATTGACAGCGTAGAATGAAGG
The following sequences are listed with their measured PBM binding z-score values.
Keep the answer to the number alone.

Answered cases to consult:
seqText | property | endpointValue
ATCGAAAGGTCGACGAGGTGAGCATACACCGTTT | PBM binding z-score | 4.53
ACTAGCAGGCCAAGTGTCACTCAAGATTAGTCCG | PBM binding z-score | 0.865
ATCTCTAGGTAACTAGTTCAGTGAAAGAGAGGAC | PBM binding z-score | 0.685
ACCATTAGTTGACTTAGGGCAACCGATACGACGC | PBM binding z-score | 0.851
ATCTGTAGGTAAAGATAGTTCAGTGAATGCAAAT | PBM binding z-score | 0.657

Ask: # return recorded PBM binding z-score for entry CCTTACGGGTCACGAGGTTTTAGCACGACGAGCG
Reply: 5.4

---

test system: PXR:RXRa (NR concentration 270 nM, RXRa partner concentration 90 nM); assay: PBM binding z-score (relative to random genomic background probes); higher = stronger binding; sequences stand for … in GC…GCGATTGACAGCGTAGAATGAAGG
Tick true if PBM binding z-score is 0.3 or greater. Tick false if PBM binding z-score is less than 0.3.

Example cases with answers are listed next.
seqText | className
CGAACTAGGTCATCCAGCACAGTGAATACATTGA | true
AATACAGGGTCACTAGGCCAGTGTAGGTACGAAT | true
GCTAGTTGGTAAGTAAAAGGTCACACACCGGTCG | true
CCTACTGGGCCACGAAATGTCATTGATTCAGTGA | false
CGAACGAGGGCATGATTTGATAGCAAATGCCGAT | false
CGTCAAAGTTCAAGGTAACGAAACAGAAAGCAGC | true

Ask: Confirm if PBM binding z-score reported for the sequence AGAATGAGGTTAAGATAAGGGAAACAGAATACAT is 0.3 or above.
Reply: true

Ask: Confirm if PBM binding z-score reported for the sequence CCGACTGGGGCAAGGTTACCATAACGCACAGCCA is 0.3 or above.
Reply: false

Ask: Confirm if PBM binding z-score reported for the sequence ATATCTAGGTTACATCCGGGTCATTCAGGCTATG is 0.3 or above.
Reply: true

Ask: Confirm if PBM binding z-score reported for the sequence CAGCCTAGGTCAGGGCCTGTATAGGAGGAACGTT is 0.3 or above.
Reply: false

Ask: Confirm if PBM binding z-score reported for the sequence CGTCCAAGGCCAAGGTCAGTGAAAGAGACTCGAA is 0.3 or above.
Reply: true

Ask: Confirm if PBM binding z-score reported for the sequence GATACAGGGGCAGCTAGAGGCCAGAGTATGGAAA is 0.3 or above.
Reply: false

Ask: Confirm if PBM binding z-score reported for the sequence TTACCAAGGTGAGCTGAGGTCATTGATCCAACTC is 0.3 or above.
Reply: true

Ask: Confirm if PBM binding z-score reported for the sequence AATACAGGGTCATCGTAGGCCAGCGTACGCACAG is 0.3 or above.
Reply: true

Ask: Confirm if PBM binding z-score reported for the sequence TCCCGGAGGACACGAAAGGTCAGAGCTCGACATC is 0.3 or above.
Reply: true
